TEST_SYSTEM: Full length activated FXIIa (α‐FXIIa) (UniProt P00748)
Sequence (P00748 20-615): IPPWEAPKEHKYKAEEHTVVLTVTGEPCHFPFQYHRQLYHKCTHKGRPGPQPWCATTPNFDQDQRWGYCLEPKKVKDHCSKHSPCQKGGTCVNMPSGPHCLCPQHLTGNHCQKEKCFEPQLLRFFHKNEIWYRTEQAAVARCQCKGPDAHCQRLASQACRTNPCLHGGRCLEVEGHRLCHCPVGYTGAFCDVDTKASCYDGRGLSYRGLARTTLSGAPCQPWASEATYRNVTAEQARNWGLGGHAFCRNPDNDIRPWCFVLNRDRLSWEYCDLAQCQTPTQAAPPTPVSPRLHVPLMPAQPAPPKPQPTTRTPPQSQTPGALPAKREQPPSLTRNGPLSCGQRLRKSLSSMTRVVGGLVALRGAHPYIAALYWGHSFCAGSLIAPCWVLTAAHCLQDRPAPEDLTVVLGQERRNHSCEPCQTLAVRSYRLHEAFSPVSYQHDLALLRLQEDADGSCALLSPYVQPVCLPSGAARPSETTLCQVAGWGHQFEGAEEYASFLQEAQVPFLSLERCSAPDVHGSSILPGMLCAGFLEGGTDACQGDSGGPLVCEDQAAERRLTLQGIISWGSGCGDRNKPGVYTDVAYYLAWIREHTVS
OBSERVED_PROPERTY: IC50 of inhibition of α‐FXIIa enzymatic activity (S‐2302 cleavage) (µM)
The figure you give is taken to be in µM; do not add the unit.

As a guide, the following entries are already answered.
RWYVTSRTAGIGPRLPWPELKRR [CTI(21–43) synthetic peptide] ... 460
YVTSRTAGIGPRLPWPELKRR [CTI(23–43) synthetic peptide] ... 1100
RWYVTSRTAGIGPRLPWPELKR [CTI(21–42) synthetic peptide] ... 200

Record CRWYVTSRTAGIGPRLPWPELKRRC [CTI(20–44) synthetic peptide] . Reported IC50 of inhibition of α‐FXIIa enzymatic activity (S‐2302 cleavage): 290

Taken from paper PMC5638086.
